Every entry's value here was drawn from patent EP3492483A1.

- studyTarget: FimH (Escherichia coli)
- Construct: endogenous in cells; host or cells: type 1 piliated UPEC bacteria
- assay: cell-based
- Design: species or system UPEC
- measurementContext: Table 1
Can you tell me HAI Titer EC>90 for the items I'm about to list?
Give bare numbers, in µM.

Identify the reported HAI Titer EC>90 for the following entry. OCC1OC(Oc2cc(C(F)(F)F)cc(C(F)(F)F)c2)C(O)C(O)C1O (stereo not drawn) [Compound 26]
32.000

# batch: return HAI Titer EC>90 for each of the 7 compounds below
1. OCC1OC(OCc2ccccc2)C(O)C(O)C1O (stereo not drawn) [Compound 16]
2. OCC1OC(Oc2ccc3ccccc3c2)C(O)C(O)C1O (stereo not drawn) [Compound 28]
3. O=[N+]([O-])c1cccc(OC2OC(CO)C(O)C(O)C2O)c1 (stereo not drawn) [Compound 12]
4. OCC1OC(Oc2cccc(Cl)c2)C(O)C(O)C1O (stereo not drawn) [Compound 24]
5. OCC1OC(Oc2cc(F)c(F)c(F)c2)C(O)C(O)C1O (stereo not drawn) [Compound 27]
6. COc1ccc(OC2OC(CO)C(O)C(O)C2O)cc1 (stereo not drawn) [Compound 21]
7. Cc1ccc(OC2OC(CO)C(O)C(O)C2O)cc1 (stereo not drawn) [Compound 20]

1. 60.000
2. 6.000
3. 16.000
4. 8.000
5. 125.000
6. 8.000
7. 8.000

====

- studyTarget: FimH (Escherichia coli, UniProt Q1R2J4)
- Construct: endogenous in cells; host or cells: type 1 piliated UPEC bacteria
- Sequence (P08190 24-167, other chains not shown): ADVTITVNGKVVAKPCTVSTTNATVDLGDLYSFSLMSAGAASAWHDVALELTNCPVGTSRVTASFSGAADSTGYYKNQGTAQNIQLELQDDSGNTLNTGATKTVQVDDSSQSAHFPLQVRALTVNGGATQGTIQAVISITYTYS
- assay: cell-based
- Design: species or system UPEC
- measurementContext: read-out: HA 50% titer EC90
metric: EC90
Respond with a number, then the unit of measure.

Recall and state the measured EC90 for OC[C@H]1O[C@H](Oc2ccc3ccccc3c2)[C@@H](O)[C@@H](O)[C@@H]1O [Compound 7b] .
6 µM

Report measured EC90; entry is COC(=O)c1cc2ccc(O[C@H]3O[C@H](CO)[C@@H](O)[C@H](O)[C@@H]3O)cc2s1 [Compound 7e]
2 µM

Give a short answer stating reported EC90 for N#Cc1cccc(-c2ccc(O[C@H]3O[C@H](CO)[C@@H](O)[C@H](O)[C@@H]3O)cc2)c1 [Compound 62] .
1 µM

Write down EC90 measured for item OCc1ccc(-c2ccc(O[C@H]3O[C@H](CO)[C@@H](O)[C@H](O)[C@@H]3O)cc2)cc1 [Compound 14i]
6 µM

Supply EC90 value. Item: OC[C@H]1O[C@H](Oc2ccc(-c3cccc(O)c3)cc2)[C@@H](O)[C@@H](O)[C@@H]1O [Compound 14k]
4 µM

# return recorded EC90 for input O=C(O)c1cc(C(=O)O)cc(-c2ccc(O[C@H]3O[C@H](CO)[C@@H](O)[C@H](O)[C@@H]3O)cc2)c1 [Compound 45]
2 µM

Next item in the queue.
Please give measured EC90 of the following entry: COC(=O)c1ccc(-c2cccc(O[C@H]3O[C@H](CO)[C@@H](O)[C@H](O)[C@@H]3O)c2)cc1 [Compound 8b]
6 µM

====

- studyTarget: FimH (Escherichia coli, UniProt Q1R2J4)
- Construct: endogenous in cells; host or cells: type 1 piliated UPEC bacteria
- assay: cell-based
- Parameters: species or system UPEC
metric: log10 EC50 (log10 of the value in µM)
Record value = log10 of EC50 given in µM.

Please give measured log10 EC50 of the following entry: O=[N+]([O-])c1ccc(COC2OC(CO)C(O)C(O)C2O)cc1 (stereo not drawn) [Compound 13]
1.78

# return recorded log10 EC50 for entry O=[N+]([O-])c1cccc(OC2OC(CO)C(O)C(O)C2O)c1 (stereo not drawn) [Compound 12]
1.20

Name the recorded log10 EC50 of the molecule listed here: NC(=O)c1cccc(OC2OC(CO)C(O)C(O)C2O)c1 (stereo not drawn) [Compound 15]
1.20

Dear colleague, please send me the reported log10 EC50 for CC(=O)Nc1cccc(OC2OC(CO)C(O)C(O)C2O)c1 (stereo not drawn) [Compound 1] when you can.
1.08

Provide only the value of recorded log10 EC50 for O=C(O)c1cccc(O[C@H]2O[C@H](CO)[C@@H](O)[C@H](O)[C@@H]2O)c1 [Compound 3l]
1.78

Quick batch: log10 EC50 for everything below.
1. COC(=O)c1cc(C(=O)OC)cc(-c2ccc(O[C@H]3O[C@H](CO)[C@@H](O)[C@H](O)[C@@H]3O)cc2)c1 [Compound 35]
2. COC(=O)c1cccc(OC2OC(CO)C(O)C(O)C2O)c1 (stereo not drawn) [Compound 8]
3. OCC1OC(Oc2ccccc2Cl)C(O)C(O)C1O (stereo not drawn) [Compound 23]
4. COC(=O)c1cccc(-c2ccc(O[C@H]3O[C@H](CO)[C@@H](O)[C@H](O)[C@@H]3O)cc2)c1 [Compound 29]

1. -0.82
2. 0.78
3. 0.60
4. 0.00

====

- studyTarget: FimH (Escherichia coli, UniProt Q1R2J4)
- Construct: endogenous in cells; host or cells: type 1 piliated UPEC bacteria
- assay: cell-based
- Set-up: species or system UPEC
Assign EC50 to each entry below.
Give bare numbers, in µM.

Fill in reported EC50 for this entry: OCC1OC(Oc2cccc(Cl)c2)C(O)C(O)C1O (centres unmarked) [Compound 24]
8

Retrieve EC50 measured for CC(=O)Nc1ccc(OC2OC(CO)C(O)C(O)C2O)cc1 (centres unmarked) [Compound 2] and print it.
8

Kindly indicate its recorded EC50. Item: CCCCCCCO[C@H]1O[C@H](CO)[C@@H](O)[C@H](O)[C@@H]1O [Heptylαman, Heptyl mannoside, reference compound]
15

For the compound OCc1ccccc1-c1ccc(O[C@H]2O[C@H](CO)[C@@H](O)[C@H](O)[C@@H]2O)cc1 [Compound 14g] , give its reported EC50.
16

Now take the following compound into account.
Identify EC50 associated with the compound COC(=O)Cc1ccc(OC2OC(CO)C(O)C(O)C2O)cc1 (centres unmarked) [Compound 9]
30

====

Would you mind telling me the reported EC90 of each entry?
- studyTarget: FimH (Escherichia coli, UniProt Q1R2J4)
- Construct: endogenous in cells; host or cells: type 1 piliated UPEC bacteria
- assay: cell-based
- Parameters: species or system UPEC
- measurementContext: read-out: HA 50% titer EC90
One number for each entry, in µM.

As a guide, the following entries are already answered.
Report EC90, nothing else, for this compound: O=[N+]([O-])c1ccc(-c2ccc(O[C@H]3O[C@H](CO)[C@@H](O)[C@H](O)[C@@H]3O)cc2)cc1 [Compound 14t]
2

Look up and state reported EC90 for OC[C@H]1O[C@H](Oc2ccc(-c3ccccc3O)cc2)[C@@H](O)[C@@H](O)[C@@H]1O [Compound 14j]
8

Indicate its recorded EC90; the compound in question is NC(=O)c1cccc(-c2ccc(O[C@H]3O[C@H](CO)[C@@H](O)[C@H](O)[C@@H]3O)cc2)c1 [Compound 14v]
2

Please look at the items below and tell me EC90 for each one, in order.
1. NC(=O)c1ccccc1-c1ccc(O[C@H]2O[C@H](CO)[C@@H](O)[C@H](O)[C@@H]2O)cc1 [Compound 14u]
2. N#Cc1ccc(-c2ccc(O[C@H]3O[C@H](CO)[C@@H](O)[C@H](O)[C@@H]3O)cc2)cc1 [Compound 14f]
3. OC[C@H]1O[C@H](Oc2ccc(-c3ccncc3)cc2)[C@@H](O)[C@@H](O)[C@@H]1O
4. CC(=O)Nc1cccc(-c2ccc(O[C@H]3O[C@H](CO)[C@@H](O)[C@H](O)[C@@H]3O)cc2)c1 [Compound 14b]

6
8
2
2

====

Kindly supply the reported pEC50 values for the records listed here.
- studyTarget: UniProt P08191
- Sequence (P08191 22-300): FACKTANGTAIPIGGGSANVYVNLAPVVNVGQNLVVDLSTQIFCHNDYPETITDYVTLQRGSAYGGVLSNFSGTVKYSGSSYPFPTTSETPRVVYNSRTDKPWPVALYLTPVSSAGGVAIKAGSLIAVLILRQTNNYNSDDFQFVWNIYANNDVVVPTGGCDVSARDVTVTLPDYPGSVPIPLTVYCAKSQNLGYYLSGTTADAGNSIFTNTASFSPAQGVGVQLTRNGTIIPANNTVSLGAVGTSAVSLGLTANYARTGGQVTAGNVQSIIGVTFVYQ
- assay: biochemical
Numbers only, as −log10 of the molar value.

As a guide, the following entries are already answered.
Please give measured pEC50 of the following entry: CCCCCCCO[C@H]1O[C@H](CO)[C@@H](O)[C@H](O)[C@@H]1O [Heptylαman, Heptyl mannoside, reference compound]
7.05

Report pEC50 for CC(=O)Nc1ccc(OC2OC(CO)C(O)C(O)C2O)cc1 (stereo not drawn) [Compound 2]
6.91

Could you please provide reported pEC50 for COC(=O)c1cccc(OC2OC(CO)C(O)C(O)C2O)c1 (stereo not drawn) [Compound 8] ? Thanks!
7.08

Please give the documented pEC50 of OCC1OC(OCc2ccccc2)C(O)C(O)C1O (stereo not drawn) [Compound 16]
6.73

# batch: return pEC50 for each of the 2 molecules below
1. N#Cc1cccc(OC2OC(CO)C(O)C(O)C2O)c1 (stereo not drawn) [Compound 6]
2. CC(=O)Nc1cccc(OC2OC(CO)C(O)C(O)C2O)c1 (stereo not drawn) [Compound 1]

[6.79, 6.80]

====

- studyTarget: FimH (Escherichia coli, UniProt Q1R2J4)
- Construct: endogenous in cells; host or cells: type 1 piliated UPEC bacteria
- assay: cell-based
- Set-up: species or system UPEC
- measurementContext: read-out: HA 50% titer
metric: EC50

Identify measured EC50 corresponding to CO[C@H]1O[C@H](CO)[C@@H](O)[C@H](O)[C@@H]1O [Methylαman, reference compound]
> 1000 µM
